- TARGET_SYSTEM: Cytosolic phospholipase A2 (Homo sapiens) (UniProt P47712)
- Sequence (P47712 whole entry): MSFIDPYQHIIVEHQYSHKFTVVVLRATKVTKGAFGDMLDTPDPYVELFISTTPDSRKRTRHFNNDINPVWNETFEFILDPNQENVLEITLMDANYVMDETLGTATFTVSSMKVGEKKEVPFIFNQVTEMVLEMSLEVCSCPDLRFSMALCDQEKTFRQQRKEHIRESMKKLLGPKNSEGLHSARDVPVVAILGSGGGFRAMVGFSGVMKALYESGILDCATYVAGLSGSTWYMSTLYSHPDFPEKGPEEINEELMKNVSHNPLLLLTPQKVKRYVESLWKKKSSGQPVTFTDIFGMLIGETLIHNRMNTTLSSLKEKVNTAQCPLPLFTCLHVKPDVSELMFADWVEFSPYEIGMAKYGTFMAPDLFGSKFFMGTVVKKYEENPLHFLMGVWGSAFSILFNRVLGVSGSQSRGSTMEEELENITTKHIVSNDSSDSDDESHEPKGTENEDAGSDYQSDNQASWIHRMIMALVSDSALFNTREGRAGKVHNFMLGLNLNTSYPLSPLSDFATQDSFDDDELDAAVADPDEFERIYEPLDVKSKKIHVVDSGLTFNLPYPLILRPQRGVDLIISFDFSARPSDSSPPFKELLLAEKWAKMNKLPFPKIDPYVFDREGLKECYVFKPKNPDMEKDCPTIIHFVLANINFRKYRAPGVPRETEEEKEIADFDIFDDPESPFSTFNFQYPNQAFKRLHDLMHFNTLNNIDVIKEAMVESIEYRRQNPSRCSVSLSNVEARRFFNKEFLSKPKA
- MEASUREMENT_DESCRIPTION: Inhibition of human recombinant GIVA cPLA2 using 400 uM Triton X-100/97 uM PAPC/1.8 uM 14C-labeled PAPC/3uM PIP2 substrate mixedmicelles at 0.091 mole fraction
MEASURE_NAME: inhibition (%)

                                        mol                             target_system  quantity_unit  sign  readout_value
0                    O=C(COc1ccccc1)c1nccs1  Cytosolic phospholipase A2 (Homo sapiens) (UniProt P47712)              %     =             40
1         O=C(COc1ccc(-c2ccccc2)cc1)c1nccs1  Cytosolic phospholipase A2 (Homo sapiens) (UniProt P47712)              %     =             80
2    CCCCCCCCc1ccc(OCC(=O)c2nc3ccccc3s2)cc1  Cytosolic phospholipase A2 (Homo sapiens) (UniProt P47712)              %     >             90
3  CCCCCCCCc1ccc(OCC(=O)c2nc(CC(=O)OCC)cs2)cc1  Cytosolic phospholipase A2 (Homo sapiens) (UniProt P47712)              %     =             64
4          CCCCCCCCc1ccc(OCC(=O)c2nccs2)cc1  Cytosolic phospholipase A2 (Homo sapiens) (UniProt P47712)              %     >             90
5                 O=C(COc1ccc(F)cc1)c1nccs1  Cytosolic phospholipase A2 (Homo sapiens) (UniProt P47712)              %     =             58
6      CCCCCCCCCCCCOCC(=O)c1nc(C(=O)OCC)cs1  Cytosolic phospholipase A2 (Homo sapiens) (UniProt P47712)              %     =             48
7     CCCCCCCCCCCCOCC(=O)c1nc(CC(=O)OCC)cs1  Cytosolic phospholipase A2 (Homo sapiens) (UniProt P47712)              %     =             49

---

- Species: Homo sapiens
- MEASUREMENT_DESCRIPTION: Inhibition of human recombinant GV sPLA2 using 400 uM Triton X-100/98.3 uM PAPC/1.7 uM 14C-labeled PAPC substrate mixedmicelles at 1 uM
This section presents compounds with their documented inhibition values.
MEASURE_NAME: inhibition (%)

In [3]: df
Out[3]:
                                        mol  measure_name  quantity_unit  readout_value
0      CCCCCCCCCCCCOCC(=O)c1nc(C(=O)OCC)cs1    inhibition              %             48
1         O=C(COc1ccc(-c2ccccc2)cc1)c1nccs1    inhibition              %             41
2                 O=C(COc1ccc(F)cc1)c1nccs1    inhibition              %              4
3     CCCCCCCCCCCCOCC(=O)c1nc(CC(=O)OCC)cs1    inhibition              %             55
4  CCCCCCCCc1ccc(OCC(=O)c2nc(CC(=O)OCC)cs2)cc1    inhibition              %             50
5                    O=C(COc1ccccc1)c1nccs1    inhibition              %              0
6    CCCCCCCCc1ccc(OCC(=O)c2nc3ccccc3s2)cc1    inhibition              %             55
7          CCCCCCCCc1ccc(OCC(=O)c2nccs2)cc1    inhibition              %             46
